These data points were gathered from the MegaScale stability set (Tsuboyama et al. 2023).

B1: EHEE_rd4_0086 (parent)
chain: EIHIRTNGEEQARKVYKMLAKRNYDVKIEQHNGQWVVTAS

variants of: B1; assay: folding stability dG (cDNA display proteolysis); higher = more stable; conditions: PBS, room temperature
PROPERTY MEASURED: folding stability dG (kcal/mol)
# output: bare number, implied unit kcal/mol

MUTATION NAME	folding stability dG (kcal/mol)
Y24Q	0.902
N23T	0.87
Q34M	2.09
K27N	1.16
K17E	2.37
N7R	2.06

variant V37F , folding stability dG observed: -0.019

variant N7S , folding stability dG observed: 1.95

variant H3P , folding stability dG observed: 0.072

variant M18S , folding stability dG observed: 1.35

variant W35T , folding stability dG observed: -0.759

variant Y24P , folding stability dG observed: 0.856

variant R5D , folding stability dG observed: 0.471

variant K21H , folding stability dG observed: 1.69
